# Target or test system: Sigma non-opioid intracellular receptor 1 (Rattus norvegicus, UniProt Q9R0C9)
# Sequence (Q9R0C9 whole entry): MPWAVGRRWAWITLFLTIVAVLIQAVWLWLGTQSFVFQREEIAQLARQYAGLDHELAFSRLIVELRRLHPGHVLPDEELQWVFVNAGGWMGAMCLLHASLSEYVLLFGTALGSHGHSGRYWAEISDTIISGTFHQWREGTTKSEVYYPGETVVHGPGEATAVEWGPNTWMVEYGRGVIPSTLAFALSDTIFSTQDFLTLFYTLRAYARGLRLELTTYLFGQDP
# Assay procedure: Tested for the inhibitory activity against sigma receptor rat cerebellar
Recorded endpoint: Ki (nM)
Numbers only, in nM.

// worked examples, Ki included
Compound: CCCN(C/C=C/I)C1COc2c(O)cccc2C1 (stereo unspecified)
Ki [nM]: 492
//
Compound: CCCN(C/C=C/I)C1CCc2cc(O)ccc2C1 (stereo unspecified)
Ki [nM]: 28.4
//
Compound: CCCN(CCC)C1CCc2ccc(O)cc2C1 (stereo unspecified)
Ki [nM]: 23.2
//
Compound: CCCN(C/C=C/I)C1CCc2c(O)cccc2C1 (stereo unspecified)
Ki [nM]: 1240

Let us move to another entry and its Ki.
(Q) Tell us which Ki value is on record for CCCN(C/C=C/I)C1CCc2ccc(O)cc2C1 (stereo unspecified)
(A) 3.2

* * *

I'd be grateful if you could share measured Ki for these entries.
# Target or test system: 5-hydroxytryptamine receptor 1A (Rattus norvegicus, UniProt P19327)
# Sequence (P19327 whole entry): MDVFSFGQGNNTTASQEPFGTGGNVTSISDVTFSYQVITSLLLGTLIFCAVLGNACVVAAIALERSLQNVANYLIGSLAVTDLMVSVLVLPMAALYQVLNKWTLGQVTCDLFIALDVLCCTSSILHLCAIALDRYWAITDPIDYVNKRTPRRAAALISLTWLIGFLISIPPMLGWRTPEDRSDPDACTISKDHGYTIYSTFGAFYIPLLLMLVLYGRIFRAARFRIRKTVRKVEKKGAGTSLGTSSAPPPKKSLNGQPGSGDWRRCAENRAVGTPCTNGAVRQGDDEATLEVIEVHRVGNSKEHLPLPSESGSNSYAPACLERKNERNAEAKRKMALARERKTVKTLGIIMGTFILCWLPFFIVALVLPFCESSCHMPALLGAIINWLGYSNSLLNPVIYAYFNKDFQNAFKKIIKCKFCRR
One number for each entry, in nM.

// worked examples, Ki included
Molecule: CCCN(C/C=C/I)C1CCc2c(O)cccc2C1 (stereo not drawn)
Ki, nM: 47.9
--
Molecule: CCCN(C/C=C/I)C1CCc2cc(O)ccc2C1 (stereo not drawn)
Ki, nM: 297

Let us move to another entry and its Ki.
(Q) # lookup: 5-hydroxytryptamine receptor 1A (Rattus norvegicus, UniProt P19327) Ki, key = CCCN(C/C=C/I)C1COc2c(O)cccc2C1 (stereo not drawn)
(A) 1270

* * *

I'd be grateful if you could share measured Ki for these entries.
# Target or test system: D(3) dopamine receptor (Homo sapiens)
# Sequence (P35462 whole entry): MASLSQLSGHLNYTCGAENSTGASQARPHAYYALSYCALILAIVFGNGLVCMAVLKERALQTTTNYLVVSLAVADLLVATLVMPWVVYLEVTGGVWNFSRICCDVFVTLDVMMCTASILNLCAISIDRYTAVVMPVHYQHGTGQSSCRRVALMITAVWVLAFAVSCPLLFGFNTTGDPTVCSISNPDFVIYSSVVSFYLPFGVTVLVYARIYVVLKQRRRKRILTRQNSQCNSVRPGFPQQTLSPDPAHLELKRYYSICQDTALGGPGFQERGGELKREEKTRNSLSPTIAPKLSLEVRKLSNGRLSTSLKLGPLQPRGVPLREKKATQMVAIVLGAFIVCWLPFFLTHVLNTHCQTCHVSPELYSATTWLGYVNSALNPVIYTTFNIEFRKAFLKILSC
# Assay procedure: Tested for the inhibitory activity against Dopamine D3 receptor in infected Sf9 cells
Numbers only, in nM.

// worked examples, Ki included
Compound: CCCN(C/C=C/I)C1COc2c(O)cccc2C1 (stereo not given)
Ki / nM: 31.4
//
Compound: CCCN(C/C=C/I)C1CCc2cc(O)ccc2C1 (stereo not given)
Ki / nM: 2.2
//
Compound: CCCN(C/C=C/I)C1CCc2c(O)cccc2C1 (stereo not given)
Ki / nM: 0.99
//
Compound: Oc1ccc2c(c1)CC(NC/C=C/I)CC2 (stereo not given)
Ki / nM: 30.2

Let us move to another entry and its Ki.
(Q) Tell us which Ki value is on record for CCCN(C/C=C/I)C1COc2ccc(O)cc2C1 (stereo not given)
(A) 6.69

* * *

# Target or test system: Sigma non-opioid intracellular receptor 1 (Rattus norvegicus, UniProt Q9R0C9)
# Assay procedure: tested for the inhibitory activity against sigma receptor rat cerebellar
Recorded endpoint: Ki (nM)
Answers are plain numbers, in nM.

(Q) Tell us which Ki value is on record for Oc1ccc2c(c1)CC(NC/C=C/I)CC2 (stereo unspecified)
(A) 1.68

Data origin: ChEMBL document CHEMBL1127788
